- Tested on: NCI-H460 (large cell lung carcinoma) cells
- PROTOCOL DETAILS: Antiproliferation assay (CELLTITER 96 AQueous, 72 h)
- Type: cell-based
- CONDITION DETAILS: Homo sapiens, NCI-H460, 72 h; read-out: IC50 against NCI-H460
TEST READOUT: pIC50
Scale note: pIC50 = -log10(concentration in M).

Given C=CC[C@H]1C[C@]2([C@@H](C)Cc3ccc(OC)c(OC)c3)OCOC2=CC1=O , state its recorded pIC50.
6.44

* * *

- PROTOCOL DETAILS: Mouse plasma concentration after IP injection
- Format: in vivo, mice
- CONDITION DETAILS: mouse, plasma; 1 h post-injection, 40 mg/kg IP, vehicle 40% propylene glycol, 20% TWEEN-20, 20% PEG400, 20% ethanol
TEST READOUT: concentration at 1 h

Given C=CC[C@H]1C[C@]2([C@@H](C)Cc3ccc(OC)c(OC)c3)OCOC2=CC1=O [bifidenone] , state its recorded concentration at 1 h.
> 360 nM
